Tested on: iBMDM (immortalised mouse bone-marrow-derived macrophages), LPS-stimulated
ASSAY_COMMENT: mitochondrial superoxide (MitoSOX fluorescence) fold increase over unstimulated control; higher = more LPS-induced mitochondrial ROS (less inhibition)
SETTINGS: inhibitor concentration: 500 nM; LPS: 100 ng/ml; time after LPS: 1 h
Would you mind telling me the reported mitochondrial superoxide of each entry?
Answer with a number only.

Answer with reported mitochondrial superoxide of O=c1cc(N2CCOCC2)oc2c(-c3cccc4c3sc3ccccc34)cccc12
1.31

Look up and report measured mitochondrial superoxide for this entry: C=CC(=O)Nc1cccc(Nc2nc(Nc3ccc(OCCOC)cc3)ncc2F)c1
1.17

Give me measured mitochondrial superoxide, please, for this molecule: COc1ccc(-c2cc3c(C)nc(N)nc3n([C@H]3CC[C@H](OCCO)CC3)c2=O)cn1
1.37

Consider the molecule COC(=O)c1ccc2c(C(=Nc3ccc(N(C)C(=O)CN4CCN(C)CC4)cc3)c3ccccc3)c(O)[nH]c2c1 . State its measured mitochondrial superoxide.
1.43

Kindly indicate its recorded mitochondrial superoxide. Item: COC(=O)Nc1ccc(-c2nc(N3CCOCC3)c3cnn(C4CCN(C(=O)OC)CC4)c3n2)cc1
1.14

Provide measured mitochondrial superoxide value, entry: CNC(=O)CN1CCC(Oc2cc3c(Nc4cccc(Cl)c4F)ncnc3cc2OC)CC1 [AZD8931 (Sapitinib)]
1.12

Given COc1ccc(-c2nc(N3CCOCC3)c3sc(CN(C)c4ncc(C(=O)NO)cn4)cc3n2)cn1 , respond with its mitochondrial superoxide.
1.31

Assign mitochondrial superoxide to the following record: CC1=C(C(=O)Nc2cc3cn[nH]c3cc2F)C(c2ccc(C(F)(F)F)cc2)CC(=O)N1 (centres undefined)
1.23

Supply measured mitochondrial superoxide of Cc1[nH]c(/C=C2\C(=O)Nc3ccc(S(=O)(=O)N(C)c4cccc(Cl)c4)cc32)c(C)c1C(=O)N1CCN(C)CC1 in your reply.
1.33

Identify measured mitochondrial superoxide corresponding to COc1ccc2c(c1)c(C1=C(c3c[nH]c4ccccc34)C(=O)NC1=O)cn2CCCN(C)C
1.23

For the molecule CO[C@H]1C[C@@H]2CC[C@@H](C)[C@@](O)(O2)C(=O)C(=O)N2CCCC[C@H]2C(=O)O[C@H]([C@H](C)C[C@@H]2CC[C@@H](OC(=O)C(C)(CO)CO)[C@H](OC)C2)CC(=O)[C@H](C)/C=C(\C)[C@@H](O)[C@@H](OC)C(=O)[C@H](C)C[C@H](C)/C=C/C=C/C=C/1C , give its reported mitochondrial superoxide.
1.55

Give mitochondrial superoxide for the following molecule: N#CC(=C(/N)Sc1ccccc1N)/C(C#N)=C(\N)Sc1ccccc1N
1.36

Quote mitochondrial superoxide reported for Cc1ccc(NC(=O)c2ccc(CN3CCN(C)CC3)cc2)cc1Nc1nccc(-c2cccnc2)n1 [Imatinib (STI571)] please.
1.28

Return the recorded mitochondrial superoxide value; entry: COc1ccc(-c2ccc3c(N4CCOCC4)nc(N4C[C@@H](C)O[C@@H](C)C4)nc3n2)cc1CO
1.29

Give the value of mitochondrial superoxide reported for the following: COc1cc2/c(=N/c3ccc(Br)cc3F)nc[nH]c2cc1OCC1CCN(C)CC1 [Vandetanib (ZD6474)]
1.57

Tell me measured mitochondrial superoxide for CCS(=O)(=O)c1cccc(-c2cc(C(=O)NC3CCN(C)CC3)c(C)c3[nH]c4ncc(C)cc4c23)c1 please.
1.31

Fill in reported mitochondrial superoxide for this entry: COc1ncc(-c2ccc3nccc(-c4ccnnc4)c3c2)cc1NS(=O)(=O)c1ccc(F)cc1F
1.28

Tell us which mitochondrial superoxide value is on record for Cc1ccc([N+](=O)[O-])cc1S(=O)(=O)N(C)/N=C/c1cnc2ccc(Br)cn12
1.17

Input CC(C)CC(=O)Nc1n[nH]c2c1CN(C(=O)C1CCN(C)CC1)C2(C)C , output reported mitochondrial superoxide.
1.08

Give mitochondrial superoxide for COc1cc2nccc(Oc3ccc(NC(=O)NC4CC4)c(Cl)c3)c2cc1C(N)=O [Lenvatinib (E7080)]
1.45

Return mitochondrial superoxide (reported value) for this molecule: CC(C)NC[C@@H](C(=O)N1CCN(c2ncnc3c2[C@H](C)C[C@H]3O)CC1)c1ccc(Cl)cc1
1.25

Answer with the recorded mitochondrial superoxide for the molecule listed here: OCCn1cc(-c2cnc3nnn(Cc4ccc5ncccc5c4)c3n2)cn1
1.37

// fetch mitochondrial superoxide given entry COc1ccc(F)c(F)c1C(=O)c1cnc(NC2CCN(S(C)(=O)=O)CC2)nc1N
1.28

Give recorded mitochondrial superoxide. C[S+]([O-])c1ccc(-c2nc(-c3ccc(F)cc3)c(-c3ccncc3)[nH]2)cc1 (centres undefined)
1.39
